subject of test: T1, mfPRLR.mmh (soluble monomeric macaca fascicularis PRLR) (macaca fascicularis)
T1 construct: soluble monomeric PRLR protein; also called macaca fascicularis (mf) PRLR.mmh; monkey PRLR
T1 chain: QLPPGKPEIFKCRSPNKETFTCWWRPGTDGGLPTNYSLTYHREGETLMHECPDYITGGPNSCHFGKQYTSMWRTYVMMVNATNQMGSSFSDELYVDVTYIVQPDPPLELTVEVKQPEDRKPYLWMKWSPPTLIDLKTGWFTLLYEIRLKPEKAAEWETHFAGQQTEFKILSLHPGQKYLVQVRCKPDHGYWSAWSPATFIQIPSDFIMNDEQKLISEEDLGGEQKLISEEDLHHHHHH
assay details: SPR (Biacore), antibody capture, 37 C
Protocol: Measurements were conducted on a T200 Biacore instrument. Kinetic association (kₐ) and dissociation (kd) rate constants were determined by processing and fitting the data to a 1:1 binding model using Scrubber 2.0 curve fitting software.
List of kon values.
Note: unit M⁻¹ s⁻¹ is implicit; provide only the numeric part.

Recorded kon of H1H6781P (antibody, human IgG1, V domains shown, human IgG1 Fc (H1H)) VH: EVQLVESGGDLVQPGESLRLSCTASGFTFNSYEMNWVRQAPGKGLEWVSYISSSGGTKYYVDSVKGRFTISRDNAKKSLYLQMNSLRADDTALYYCARLNGVDVFDIWGQGTMVTVSS VL: DIQMTQSPSSLSASVGDRVTITCRASQDIFNYLAWFQQKPGKVPELLISAASTLQSGVPSRFSGSGSGTYFTLTISSLQPEDIATYYCQRYNSAPLTFGGGTKVEIK , please.
247000

Would you kindly repeat that for H1H6975N (antibody, human IgG1, V domains shown, also called H2M6975N) VH: EVHLVESGGGLVQPGGSLRLSCAASGFTFSSYEMNWVRQTPGKGLEWISHISSRSVIIYYADSVKGRFTISRDNAKNSLFLQMNSLRAEDTAVYFCAGITIFGIPEYWGQGTLVTVSS VL: EIVLTQSPATLSLSPGERATLSCRASQSVSSYFAWYQQKPGQAPRLLIYDASSRATGIPTRFSGSGSGTDFTLTISSLEPEDFAVYYCQQRSSWPITFGQGTRLEIK ?
140000
